Listed below: logD values for each entry.
assay.notes: Distribution coefficient, log D of the compound at pH 7.4
Format: physicochemical
experimental.parameters: octanol/water
# output: bare number, no unit

As a guide, the following entries are already answered.
CCN(CC)CCNc1cc(C)c2cc(NC(=O)c3ccc(Cl)c(Cl)c3)ccc2n1    1.66
Cc1cc(NCCN2CCOCC2)nc2ccc(NC(=O)c3ccc(Cl)c(Cl)c3)cc12    2.64
Cc1cc(NCCN2CCCCC2)nc2ccc(NC(=O)c3ccc(Cl)c(Cl)c3)cc12    2.72

Query block: For the compound Cc1cc(NCCN2CCCC2)nc2ccc(NC(=O)c3ccc(Cl)c(Cl)c3)cc12 , give its reported logD.
Result block: 1.72

Query block: For Cc1cc(NCCN(C)C)nc2ccc(NC(=O)c3ccc(Cl)c(Cl)c3)cc12 , write its logD.
Result block: 1.47

Query block: Give a short answer stating reported logD for CCN1CCN(c2cc(C)c3cc(NC(=O)c4ccc(Cl)c(Cl)c4)ccc3n2)CC1 .
Result block: 3.67

Query block: Give me measured logD, please, for this compound: Cc1cc(NCCN2CCN(C)CC2)nc2ccc(NC(=O)c3ccc(Cl)c(Cl)c3)cc12
Result block: 1.73
